Numbers sourced from patent US4464378A.

protocolNotes: in vivo
cond: rat, plasma, po, 0.03 mg, Plasma Level, Mean, oral (intraduodenal), 30 μg/rat, 60 min, mean of 3 rats
measuredParameter: concentration at 1 h (ng/mL)
Give the value in ng/mL but do not write ng/mL after it.

-- ask Retrieve concentration at 1 h measured for C=CCN1CC[C@]23c4c5ccc(O)c4O[C@H]2C(=O)CC[C@@]3(O)[C@H]1C5 [naloxone] and print it.
-- reply 0.09

----------
protocolNotes: in vivo
cond: rat, plasma, iv, 0.03 mg, Plasma Level, 30 μg/rat, 10 min, individual rats I, II, III
measuredParameter: concentration at 10 min (ng/mL)
The figure you give is taken to be in ng/mL; do not add the unit.

-- ask Quickly give me recorded concentration at 10 min for C=CCN1CC[C@]23c4c5ccc(O)c4O[C@H]2C(=O)CC[C@@]3(O)[C@H]1C5 [naloxone]
-- reply 15.6
